Parameter growth: see the listing below.
Tested on: MDA-MB-468 breast
Assay: NCI-60 one-dose screen, 48 h (100 = growth as untreated, 0 = no growth, -100 = all killed)
Settings: 10 µM unless noted
This is part of a sample that, as a whole, favours compounds with a hit. Of some 83,000 tested, about 20% had one in any assay. Active and inactive are the calls of the source. How the source made its calls: active means growth percent below 10; inactive means the rest.
READOUT_NAME: growth

{"COMPOUND": "COCc1c(-c2ccc(NC(=O)Nc3cc(C(F)(F)F)ccc3F)c(F)c2)c2c(N)ncnn2c1CN1CCOCC1", "RESULT": "-54.8% (active)"}
{"COMPOUND": "CCc1ccc(NC(=O)N[C@@H](Cc2cccc(C)c2)C(=O)N[C@@H]2C(=O)N3CCC[C@H]3C(=O)N3CCCC[C@H]3C(=O)N[C@@H](CO)C(=O)N3C[C@H](C)C[C@H]3C(=O)O[C@H]2C)c(F)c1", "RESULT": "-14.2% (active)"}
{"COMPOUND": "O=c1[nH]c(-c2ccc(Cl)cc2)cn1-c1ccc(-n2cc(-c3ccc(Cl)cc3)[nH]c2=O)cc1", "RESULT": "103% (inactive)"}
{"COMPOUND": "CC[C@H](C)C(=O)O[C@H]1CCC=C2C=C[C@H](C)C(CCC3C[C@@H](O)CC(=O)O3)[C@H]21 (some centres undefined)", "RESULT": "75.4% (inactive)"}
{"COMPOUND": "c1cnc2ccc3ncccc3c2c1", "RESULT": "122% (inactive)"}
{"COMPOUND": "COc1ccc(C(c2cc(OC)c(OC)c(OC)c2)n2ccnc2)cc1O (centres undefined)", "RESULT": "15.6% (inactive)"}
{"COMPOUND": "CCCCCCCCCCCC(=O)OC(C)C(=O)NCCCC (centres undefined)", "RESULT": "105% (inactive)"}
{"COMPOUND": "COc1cc2nccc(Oc3ccc(NC(=O)Nc4cc(C)on4)c(Cl)c3)c2cc1OC", "RESULT": "15% (inactive)"}
{"COMPOUND": "Cn1ccc2c(c1=O)C(=O)c1nccc3c1c-2nc1ccccc13", "RESULT": "-84.6% (active)"}

###

Tested on: MDA-MB-468 breast
Assay: NCI-60 one-dose screen, 48 h
Settings: 10 µM unless noted
Compounds without any hit were thinned out: in the full panel of roughly 83,000, 20% have a hit. Calls of active or inactive are those of the source. How the source made its calls: active means growth percent below 10; inactive means the rest.
Possible outcomes: TRUE for active, FALSE for inactive

{"COMPOUND": "CN1C(=O)N(C)C2C1NN=c1s/c(=C\\C=C\\c3ccccc3)c(=O)n12 (centres undefined)", "TARGET_OR_SYSTEM": "MDA-MB-468 breast", "CLASS_ASSIGNMENT": "FALSE"}
{"COMPOUND": "C=C1C(=O)O[C@H]2[C@H]1CC/C(COC(=O)/C=C\\C(=O)NCc1ccc(Cn3c(=O)sn(-c4ccc(C#N)cc4)c3=O)cc1)=C\\CC[C@@]1(C)O[C@@H]21", "TARGET_OR_SYSTEM": "MDA-MB-468 breast", "CLASS_ASSIGNMENT": "TRUE"}
{"COMPOUND": "COC(=O)Nc1nc2ccc(C(=O)c3ccccc3)cc2[nH]1", "TARGET_OR_SYSTEM": "MDA-MB-468 breast", "CLASS_ASSIGNMENT": "TRUE"}
{"COMPOUND": "CCOc1ccc(Cc2nccc3cc(OCC)c(OCC)cc23)cc1OCC", "TARGET_OR_SYSTEM": "MDA-MB-468 breast", "CLASS_ASSIGNMENT": "FALSE"}
{"COMPOUND": "Cc1nc(N/N=C/c2cn(-c3ccccc3)nc2-c2cc3ccccc3oc2=O)sc1N=Nc1ccccc1", "TARGET_OR_SYSTEM": "MDA-MB-468 breast", "CLASS_ASSIGNMENT": "FALSE"}
{"COMPOUND": "CCCCCS(=O)(=O)Nc1ccc(C(=O)O)cc1", "TARGET_OR_SYSTEM": "MDA-MB-468 breast", "CLASS_ASSIGNMENT": "FALSE"}
{"COMPOUND": "CCOC(=O)c1nc2c3ccccc3cnn2c1C(=O)c1ccc(OC)cc1", "TARGET_OR_SYSTEM": "MDA-MB-468 breast", "CLASS_ASSIGNMENT": "FALSE"}
{"COMPOUND": "Cc1ccc(C)c2c1C(O)(C#Cc1ccccc1)c1ccccc1C2(O)C#Cc1ccccc1 (centres undefined)", "TARGET_OR_SYSTEM": "MDA-MB-468 breast", "CLASS_ASSIGNMENT": "FALSE"}
{"COMPOUND": "O=c1c2cccc3c(N4CCCC4)ccc(c32)c2nc3ccccc3n12", "TARGET_OR_SYSTEM": "MDA-MB-468 breast", "CLASS_ASSIGNMENT": "FALSE"}
{"COMPOUND": "O=C(c1nnc(Nc2ccccc2Br)o1)c1c[nH]c2ccccc12", "TARGET_OR_SYSTEM": "MDA-MB-468 breast", "CLASS_ASSIGNMENT": "FALSE"}
{"COMPOUND": "CC1CN(C2CCCCC2)C(=O)NC1=O (centres undefined)", "TARGET_OR_SYSTEM": "MDA-MB-468 breast", "CLASS_ASSIGNMENT": "FALSE"}
{"COMPOUND": "CS(=O)(=O)c1ccc(Cl)c([N+](=O)[O-])c1", "TARGET_OR_SYSTEM": "MDA-MB-468 breast", "CLASS_ASSIGNMENT": "FALSE"}
{"COMPOUND": "NS(=O)(=O)c1ccc(N2CC(c3nc4ccccc4[nH]3)CC2=O)cc1 (centres undefined)", "TARGET_OR_SYSTEM": "MDA-MB-468 breast", "CLASS_ASSIGNMENT": "FALSE"}
{"COMPOUND": "CCOC(=O)CSc1c(-c2ccccc2)c2cc(Cl)ccc2[nH]c1=O", "TARGET_OR_SYSTEM": "MDA-MB-468 breast", "CLASS_ASSIGNMENT": "FALSE"}
{"COMPOUND": "Clc1nc(Cl)c2ncn(CC3(Cn4cnc5c(Cl)nc(Cl)nc54)COC3)c2n1", "TARGET_OR_SYSTEM": "MDA-MB-468 breast", "CLASS_ASSIGNMENT": "TRUE"}
{"COMPOUND": "CCSc1nnc2n(Cc3ccccc3)c(=O)c3c(C)c(C(N)=O)sc3n12", "TARGET_OR_SYSTEM": "MDA-MB-468 breast", "CLASS_ASSIGNMENT": "FALSE"}
{"COMPOUND": "O=C(Cc1ccc(/C=C/C(=O)c2ncc[nH]2)cc1)Nc1cc(C(F)(F)F)cc(C(F)(F)F)c1", "TARGET_OR_SYSTEM": "MDA-MB-468 breast", "CLASS_ASSIGNMENT": "FALSE"}
{"COMPOUND": "Cc1nn(-c2ccccc2)c(-n2ccnc2)c1/C=N/Nc1nc(-c2ccc(F)cc2)cs1", "TARGET_OR_SYSTEM": "MDA-MB-468 breast", "CLASS_ASSIGNMENT": "FALSE"}
{"COMPOUND": "CC(=O)Oc1cc(OC(C)=O)c2ccccc2c1OC(C)=O", "TARGET_OR_SYSTEM": "MDA-MB-468 breast", "CLASS_ASSIGNMENT": "FALSE"}
{"COMPOUND": "C1=C(Cc2ccccc2)n2cnc3ncnc(c32)S1", "TARGET_OR_SYSTEM": "MDA-MB-468 breast", "CLASS_ASSIGNMENT": "TRUE"}
{"COMPOUND": "N/C(=N/N=C/c1ccccc1)N/N=C\\c1ccccc1", "TARGET_OR_SYSTEM": "MDA-MB-468 breast", "CLASS_ASSIGNMENT": "TRUE"}
{"COMPOUND": "O=c1[nH]ccc2c(S(=O)(=O)N3CCCNCC3)cccc12", "TARGET_OR_SYSTEM": "MDA-MB-468 breast", "CLASS_ASSIGNMENT": "FALSE"}
{"COMPOUND": "Cc1ccc2c(n1)C(=O)C(Cl)=C(Nc1ccc(N3CCN(C)CC3)cc1)C2=O", "TARGET_OR_SYSTEM": "MDA-MB-468 breast", "CLASS_ASSIGNMENT": "TRUE"}
{"COMPOUND": "O=C1C(Cl)=C(Nc2ccccc2)C(=O)C(Cl)=C1Nc1ccccc1", "TARGET_OR_SYSTEM": "MDA-MB-468 breast", "CLASS_ASSIGNMENT": "FALSE"}
{"COMPOUND": "COc1ccc(N/N=C/c2cn(-c3ccc(C(=O)O)cc3)nc2-c2cc3ccccc3oc2=O)cc1", "TARGET_OR_SYSTEM": "MDA-MB-468 breast", "CLASS_ASSIGNMENT": "FALSE"}
{"COMPOUND": "O=C(Nc1nn2c(-c3cc(C(F)(F)F)cc(C(F)(F)F)c3)nnc2s1)C1CCCC1", "TARGET_OR_SYSTEM": "MDA-MB-468 breast", "CLASS_ASSIGNMENT": "TRUE"}
{"COMPOUND": "CCCCOP(=O)(OCCCC)C(C(=O)OCC)C(CC(=O)OCC)C(=O)OCC (centres undefined)", "TARGET_OR_SYSTEM": "MDA-MB-468 breast", "CLASS_ASSIGNMENT": "FALSE"}
{"COMPOUND": "O=C(Cc1ccc(F)c(Cl)c1)Nc1cc(C2(C(F)(F)F)CC2)nn1CC1CCCCC1", "TARGET_OR_SYSTEM": "MDA-MB-468 breast", "CLASS_ASSIGNMENT": "TRUE"}
{"COMPOUND": "CCC(CC)COC(=O)c1ccc(O)c(O)c1", "TARGET_OR_SYSTEM": "MDA-MB-468 breast", "CLASS_ASSIGNMENT": "FALSE"}
{"COMPOUND": "CCCCNC1=C(OCC)C(=O)c2ccccc2C1=O", "TARGET_OR_SYSTEM": "MDA-MB-468 breast", "CLASS_ASSIGNMENT": "FALSE"}
{"COMPOUND": "NC1CC2(CCN(c3cnc(C(=O)Nc4cc(F)cc5cccnc45)cn3)CC2)C1", "TARGET_OR_SYSTEM": "MDA-MB-468 breast", "CLASS_ASSIGNMENT": "FALSE"}
{"COMPOUND": "COc1cc(-c2nn(-c3cccc(NC(=O)c4ccc(Cl)c(C(F)(F)F)c4)c3)cc2-c2ccncc2)ccc1Cl", "TARGET_OR_SYSTEM": "MDA-MB-468 breast", "CLASS_ASSIGNMENT": "FALSE"}
{"COMPOUND": "O=C(NCc1ccccc1O)c1cccc2ccccc12", "TARGET_OR_SYSTEM": "MDA-MB-468 breast", "CLASS_ASSIGNMENT": "FALSE"}
{"COMPOUND": "CCOC(=O)c1c(NC(=O)C2CCCCC2C(=O)O)sc2c1CCCC2 (centres undefined)", "TARGET_OR_SYSTEM": "MDA-MB-468 breast", "CLASS_ASSIGNMENT": "FALSE"}
